assay system: DNA-dependent protein kinase catalytic subunit (Homo sapiens, UniProt P78527)
Sequence (P78527 whole entry): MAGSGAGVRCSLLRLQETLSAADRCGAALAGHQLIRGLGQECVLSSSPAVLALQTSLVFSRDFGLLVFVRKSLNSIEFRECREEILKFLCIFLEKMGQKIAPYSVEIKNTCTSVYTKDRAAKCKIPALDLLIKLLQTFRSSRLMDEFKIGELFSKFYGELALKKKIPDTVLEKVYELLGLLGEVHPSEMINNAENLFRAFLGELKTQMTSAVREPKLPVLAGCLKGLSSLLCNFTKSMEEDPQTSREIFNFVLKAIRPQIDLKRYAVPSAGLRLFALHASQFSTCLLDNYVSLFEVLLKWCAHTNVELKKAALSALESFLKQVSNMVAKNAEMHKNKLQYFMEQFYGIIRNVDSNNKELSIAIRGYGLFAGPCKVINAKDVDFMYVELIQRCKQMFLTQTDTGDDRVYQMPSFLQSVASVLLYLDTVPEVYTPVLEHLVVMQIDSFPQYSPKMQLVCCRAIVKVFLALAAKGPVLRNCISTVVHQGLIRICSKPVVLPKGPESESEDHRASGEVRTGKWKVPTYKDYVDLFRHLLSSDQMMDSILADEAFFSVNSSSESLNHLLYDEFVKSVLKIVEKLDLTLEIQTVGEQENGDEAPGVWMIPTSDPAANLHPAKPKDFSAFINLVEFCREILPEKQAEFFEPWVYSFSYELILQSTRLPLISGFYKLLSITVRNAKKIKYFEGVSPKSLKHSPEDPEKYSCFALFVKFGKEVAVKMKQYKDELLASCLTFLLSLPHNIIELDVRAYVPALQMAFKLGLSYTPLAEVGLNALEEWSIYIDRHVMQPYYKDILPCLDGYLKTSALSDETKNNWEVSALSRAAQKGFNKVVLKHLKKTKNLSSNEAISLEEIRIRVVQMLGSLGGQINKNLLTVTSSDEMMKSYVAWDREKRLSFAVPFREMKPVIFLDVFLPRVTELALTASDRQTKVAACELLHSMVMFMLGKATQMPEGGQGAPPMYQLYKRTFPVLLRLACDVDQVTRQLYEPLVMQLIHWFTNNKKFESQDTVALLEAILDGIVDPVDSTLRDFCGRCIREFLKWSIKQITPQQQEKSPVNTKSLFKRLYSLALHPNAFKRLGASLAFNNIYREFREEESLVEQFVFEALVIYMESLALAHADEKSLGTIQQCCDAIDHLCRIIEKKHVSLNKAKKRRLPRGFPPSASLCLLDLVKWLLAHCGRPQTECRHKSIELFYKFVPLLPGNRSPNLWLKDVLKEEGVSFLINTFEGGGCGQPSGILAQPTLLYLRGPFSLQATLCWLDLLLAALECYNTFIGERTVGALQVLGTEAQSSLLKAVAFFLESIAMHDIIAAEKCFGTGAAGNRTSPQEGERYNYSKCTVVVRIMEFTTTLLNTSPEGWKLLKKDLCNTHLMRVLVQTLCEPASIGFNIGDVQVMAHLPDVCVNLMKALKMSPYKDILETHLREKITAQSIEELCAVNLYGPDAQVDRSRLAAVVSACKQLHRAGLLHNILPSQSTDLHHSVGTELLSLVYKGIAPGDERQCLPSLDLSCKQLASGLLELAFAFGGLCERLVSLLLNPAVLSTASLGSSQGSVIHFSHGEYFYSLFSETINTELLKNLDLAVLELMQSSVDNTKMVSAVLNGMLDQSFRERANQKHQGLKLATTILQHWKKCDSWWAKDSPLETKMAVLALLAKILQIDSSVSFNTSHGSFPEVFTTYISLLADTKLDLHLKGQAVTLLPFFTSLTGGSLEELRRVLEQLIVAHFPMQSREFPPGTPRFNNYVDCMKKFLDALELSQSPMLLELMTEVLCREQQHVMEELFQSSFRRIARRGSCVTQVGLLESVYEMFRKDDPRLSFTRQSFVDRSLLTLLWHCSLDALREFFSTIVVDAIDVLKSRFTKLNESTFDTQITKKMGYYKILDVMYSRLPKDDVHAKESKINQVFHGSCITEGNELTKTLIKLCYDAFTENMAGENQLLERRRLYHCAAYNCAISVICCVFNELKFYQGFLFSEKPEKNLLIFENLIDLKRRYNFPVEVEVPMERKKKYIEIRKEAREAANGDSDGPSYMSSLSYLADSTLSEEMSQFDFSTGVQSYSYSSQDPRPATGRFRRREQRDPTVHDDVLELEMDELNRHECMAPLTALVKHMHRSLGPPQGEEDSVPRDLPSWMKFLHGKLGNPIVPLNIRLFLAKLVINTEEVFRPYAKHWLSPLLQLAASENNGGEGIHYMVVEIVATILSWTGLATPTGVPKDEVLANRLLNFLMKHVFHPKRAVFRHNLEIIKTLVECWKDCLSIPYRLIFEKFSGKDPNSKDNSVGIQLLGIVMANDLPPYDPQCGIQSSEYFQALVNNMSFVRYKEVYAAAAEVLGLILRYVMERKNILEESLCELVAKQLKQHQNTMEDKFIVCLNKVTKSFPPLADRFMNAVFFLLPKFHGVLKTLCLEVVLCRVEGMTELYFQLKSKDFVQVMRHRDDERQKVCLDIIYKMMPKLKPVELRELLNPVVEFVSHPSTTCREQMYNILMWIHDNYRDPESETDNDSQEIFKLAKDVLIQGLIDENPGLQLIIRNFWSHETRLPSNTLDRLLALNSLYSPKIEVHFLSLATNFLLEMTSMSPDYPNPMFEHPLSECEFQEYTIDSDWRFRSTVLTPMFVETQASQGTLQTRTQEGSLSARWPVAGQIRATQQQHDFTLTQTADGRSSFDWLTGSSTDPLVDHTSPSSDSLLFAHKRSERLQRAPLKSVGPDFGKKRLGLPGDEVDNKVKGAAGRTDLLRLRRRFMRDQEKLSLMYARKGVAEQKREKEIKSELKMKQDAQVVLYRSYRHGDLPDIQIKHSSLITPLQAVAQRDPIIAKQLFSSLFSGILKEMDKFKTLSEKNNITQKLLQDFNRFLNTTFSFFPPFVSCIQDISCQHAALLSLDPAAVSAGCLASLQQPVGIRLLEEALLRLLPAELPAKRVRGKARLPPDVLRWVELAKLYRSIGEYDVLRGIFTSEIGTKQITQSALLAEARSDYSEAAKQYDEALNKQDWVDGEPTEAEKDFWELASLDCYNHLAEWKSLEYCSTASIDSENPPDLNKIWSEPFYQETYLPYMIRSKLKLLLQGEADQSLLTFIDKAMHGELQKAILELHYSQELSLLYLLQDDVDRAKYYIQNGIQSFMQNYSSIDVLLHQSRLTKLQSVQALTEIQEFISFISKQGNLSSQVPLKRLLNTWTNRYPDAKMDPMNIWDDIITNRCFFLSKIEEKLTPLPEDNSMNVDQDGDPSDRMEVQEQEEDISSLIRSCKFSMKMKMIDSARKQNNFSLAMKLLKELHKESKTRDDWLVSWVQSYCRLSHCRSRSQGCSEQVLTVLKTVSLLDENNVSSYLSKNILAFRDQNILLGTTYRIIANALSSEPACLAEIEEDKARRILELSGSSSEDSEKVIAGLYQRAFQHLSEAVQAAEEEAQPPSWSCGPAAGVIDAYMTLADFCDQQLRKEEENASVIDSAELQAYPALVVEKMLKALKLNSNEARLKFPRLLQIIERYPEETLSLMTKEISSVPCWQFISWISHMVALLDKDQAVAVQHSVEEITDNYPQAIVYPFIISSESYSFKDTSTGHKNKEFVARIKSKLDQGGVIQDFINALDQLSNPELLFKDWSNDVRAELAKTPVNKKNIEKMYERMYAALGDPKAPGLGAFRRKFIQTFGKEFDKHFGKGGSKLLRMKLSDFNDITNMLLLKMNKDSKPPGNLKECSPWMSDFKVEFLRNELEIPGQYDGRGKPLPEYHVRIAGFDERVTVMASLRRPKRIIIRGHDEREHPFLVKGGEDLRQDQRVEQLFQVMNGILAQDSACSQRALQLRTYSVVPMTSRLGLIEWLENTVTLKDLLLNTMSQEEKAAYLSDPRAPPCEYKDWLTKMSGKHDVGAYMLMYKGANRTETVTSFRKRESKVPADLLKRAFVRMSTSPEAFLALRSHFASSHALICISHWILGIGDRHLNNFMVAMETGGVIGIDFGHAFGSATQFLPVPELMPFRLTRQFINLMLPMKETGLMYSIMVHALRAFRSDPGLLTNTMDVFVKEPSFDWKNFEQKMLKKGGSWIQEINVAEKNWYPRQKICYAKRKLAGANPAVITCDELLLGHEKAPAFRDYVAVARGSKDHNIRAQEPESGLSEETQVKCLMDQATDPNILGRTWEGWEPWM
procedure text: ADP Hunter Plus Assay: The kinase activity was measured by using the commercial ADP Hunter Plus assay available from DiscoveRx (#90-0083), which is a homogeneous assay to measure the accumulation of ADP, a universal product of kinase activity. The enzyme, DNA-PK was purchased from Promega (#V5811). The assay was done following the manufacturer recommendations with slight modifications: Mainly the kinase buffer was replace by 15 mM HEPES, pH 7.5, 10 mM MgCl2, 20 mM NaCl, 1 mM EGTA, 0.1 mg/mL BGG, 0.02% Tween 20. The DNA-PK was assayed in a titration experiment to determine the optimal protein concentration for the inhibition assay. To calculate the […] of the Compounds, serial 1:3 dilutions of the compounds were added to the enzyme at a fixed concentration (2 U/uL). The enzyme was preincubated with the inhibitor and 200 uM DNA substrate and then ATP was added to a final 75 uM concentration. Reaction was carried out for 1 hour at 37° C. Reagent A and B were sequentially added to the wells and plates were incubated for 30 min at RT. Fluorescence counts were read in a EnVision instrument (Perkin Elmer) with the recommended settings (550 and 590 nm as excitation and emission wavelengths, respectively).
Each entry below carries its recorded IC50.

{"columns": ["molecule", "IC50"],
 "data": [
  ["Cc1cc2c(-c3nc4c(c(C5(S(C)(=O)=O)CCOCC5)n3)OCC3COCCN43)cccc2[nH]1 (centres undefined)", "≥ 25 µM"],
  ["C[S@TB17](=O)(=O)C1(c2nc(-c3cc(F)cc4[nH]ccc34)nc3c2OCCC2COCCN32)CCOCC1 (centres undefined)", "≥ 25 µM"],
  ["O=S(=O)(Cc1nc(-c2cccc3[nH]ccc23)nc2c1OCC1COCCN21)C(F)(F)F (centres undefined)", "≥ 25 µM"],
  ["COc1cc(-c2nc3c(c(C4([S@TB1](C)(=O)=O)CCOCC4)n2)OCCC2COCCN32)c2cc[nH]c2c1 (centres undefined)", "≥ 25 µM"],
  ["COc1ccc(-c2nc3c(c(C4(S(C)(=O)=O)CCOCC4)n2)OCC2COCCN32)c2cc[nH]c12 (centres undefined)", "≥ 25 µM"],
  ["CS(=O)(=O)C1(c2nc(-c3cccc4[nH]ccc34)nc3c2OCC2COCCN32)CC1 (centres undefined)", "≥ 25 µM"],
  ["CS(=O)(=O)C1(c2nc(-c3cccc4[nH]ccc34)nc3c2OCC[C@@H]2COCCN32)CCOCC1", "≥ 25 µM"],
  ["CN1CCC(c2nc(-c3cccc4[nH]ccc34)nc3c2OCC2COCCN32)(S(C)(=O)=O)CC1 (centres undefined)", "≥ 25 µM"],
  ["CS(=O)(=O)C1(c2nc(-c3cncc4[nH]ccc34)nc3c2OCC2COCCN32)CCOCC1 (centres undefined)", "≥ 25 µM"]
]}
